assayed-target: geranylgeranyltransferase type-I (Rattus norvegicus, UniProt P53610+Q04631)
assay-text: Inhibition of recombinant rat GGtase-1 expressed in Escherichia coli using dansyl-GCVLL as substrate after 1.5 hrs by spectrofluorimetric analysis
result-type: IC50

A selection of reference data follows.
molecule	assayed-target	result-type	experimental-result
Cc1cc2ncn(CC(C(=O)O)P(=O)(O)O)c2cc1C (stereo not drawn)	geranylgeranyltransferase type-I (Rattus norvegicus, UniProt P53610+Q04631)	IC50	> 1000 µM
Cc1cc2ncn(CC(P(=O)(O)O)P(=O)(O)O)c2cc1C	geranylgeranyltransferase type-I (Rattus norvegicus, UniProt P53610+Q04631)	IC50	> 1000 µM

Give the reported IC50 for O=C(O)C(Cn1cnc2cc(F)c(F)cc21)P(=O)(O)O (stereo not drawn) (system: geranylgeranyltransferase type-I (Rattus norvegicus, UniProt P53610+Q04631)).
145 µM

Repeat with O=C(O)C(Cn1cnc2ccccc21)P(=O)(O)O (stereo not drawn)
> 1000 µM

Repeat with CC(Cn1cnc2ccccc21)(C(=O)O)P(=O)(O)O (stereo not drawn)
> 1000 µM

Repeat with CC(Cn1cnc2ccccc21)(P(=O)(O)O)P(=O)(O)O
> 1000 µM

Repeat with O=P(O)(O)C(Cn1cnc2ccccc21)P(=O)(O)O
> 1000 µM

Repeat with O=P(O)(O)C(Cn1cnc2cc(F)c(F)cc21)P(=O)(O)O
122 µM
